Assay: viability profiling in MM1S myeloma cells – cell-based, resazurin fluorescence, basal, 24 h, PK04 Diversity Set, profiling panel (AID 1174);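 note: MM1S multiple myeloma cell line; test concentration not given here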
Conditions: higher = more signal, called active from +8 up or from −8 down
Where z-score equals or exceeds -1, the correct label is t; where it does not, the label is f.

## Input Answer whether z-score of COCCOC(=O)N1C(=O)[C@@]2(c3cc(C#CCCO)ccc31)[C@H](c1ccc(OCCO)cc1)N1[C@H](c3ccccc3)[C@H](c3ccccc3)OC(=O)[C@H]1[C@@H]2C(=O)N1CCCCCCC1 is greater than or equal to -1.
## Output t

## Input Determine whether this molecule has z-score no lower than -1: [N-]=[N+]=Nc1ccccc1C[C@@]1(C(=O)NCc2ccccc2)N=C(c2ccc(OCCCO)cc2)O[C@@H]1c1ccccc1N=[N+]=[N-]
## Output f

## Input // inclusive: z-score at least -1? input: C=C1C(=O)C=C2CN(C(=O)c3ccccc3)[C@@](Cc3ccc(OC)cc3)(C(=O)OC)[C@@H]12
## Output f

## Input Is z-score for O=C1[C@H]2C=C(I)[C@H](C[C@@H]2OCCCCCCO)[C@@]12CO2 at or above -1?
## Output t

## Input Hi team, for COC(=O)[C@@]1(Cc2ccc(F)cc2)[C@H]2c3cc(C(=O)N(C)C)n(C)c3C[C@H]2CN1C(=O)c1ccccc1 , is the recorded z-score at or above -1?
## Output t

## Input Kindly determine if z-score recorded for COC(=O)C(CC#Cc1ccc2c(c1)[C@]1(C(=O)N2)[C@H](C(=O)N2CCc3cc(OC)c(OC)cc3C2)[C@H]2C(=O)O[C@H](c3ccccc3)[C@H](c3ccccc3)N2[C@@H]1c1ccccc1OCCO)C(=O)OC is above or exactly -1.
## Output f

## Input Determine whether measured z-score meets or exceeds -1 for O=C1NC(=O)C2C1C=CC(C(O)c1ccc([N+](=O)[O-])cc1)N2Nc1ccccn1 (configuration not stated)
## Output t

----------
Assay: growth of efflux-deficient E. coli DRC39 – strain DRC39, OD650, 48 h, E. coli filamentation inducers, primary screen (AID 1179);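 note: screen aims at cell division blockers that make cells filament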
Conditions: E. coli DRC39 delta-acrAB growth, higher = more signal, called active from +8 up or from −8 down
EXPERIMENTAL_ENDPOINT: z-score
Reply briefly: the number, and no unit.

## Input Provide one value: measured z-score of CCCC[C@H]1C[C@@H]1[C@@H]1N(C(C)=O)[C@H](c2cccc(OC)c2)CC12CC2
## Output -0.791

## Input Please indicate z-score recorded for COC(=O)[C@@]1(Cc2ccccc2)N=C(c2ccc(OCCCO)cc2)O[C@H]1c1ccccc1CN=[N+]=[N-]
## Output 0.93

## Input Fill in reported z-score for this entry: COCCCNC(=O)[C@@H]1c2ccccc2C(=O)N(Cc2ccc(OC(F)(F)F)cc2)[C@H]1c1ccc(CO)cc1
## Output -0.34

## Input Provide z-score value for the following compound: COc1ccc(C(O)C2C=CC3C(=O)N(c4ccccc4)C(=O)C3N2Nc2ccc([N+](=O)[O-])cc2)c2ccccc12 (stereo not drawn)
## Output -0.219

## Input Report z-score for COC(=O)[C@]1(Cc2ccccc2)N=C(c2ccc(OCCCO)cc2)O[C@@H]1c1ccccc1CN=[N+]=[N-]
## Output -0.88

## Input Retrieve z-score measured for C=C(CCCC)/C(=C/C[C@H](OC(=O)c1ccncc1)c1ccc(OCCO)cc1)c1cnc2ccccc2c1 and print it.
## Output 0.258

## Input Please list z-score recorded for the compound COc1cc(CO)cc(I)c1O[C@H]1C=C(C(=O)NCCO)C[C@@H]2O[C@H]12
## Output -0.475

## Input Report measured z-score; entry is CC(C)NC(=O)[C@@H]1c2ccccc2C(=O)N(Cc2ccccc2C(F)(F)F)[C@H]1c1ccc(CO)cc1
## Output 0.0644

## Input Specify measured z-score for C=CCC(OC(C)=O)[C@@H]1[C@@H](N(Cc2ccc(-c3cccc(C(F)(F)F)c3)o2)C(=O)Cc2ccc(F)cc2)c2cc(OCCCO)ccc2N1C(=O)Cc1ccc2ccccc2c1 (stereo partly drawn) .
## Output -0.088

## Input Return value of z-score for input COC(=O)[C@@]1(Cc2ccc(OC)cc2)[C@H]2c3cc(C(=O)N4CCCC4)n(Cc4ccc(C(F)(F)F)nc4)c3C[C@H]2CN1C(=O)c1ccccc1 , no commentary.
## Output -0.71

## Input Tell us which z-score value is on record for COCCOC(=O)N1C(=O)[C@@]2(c3ccccc31)[C@H](C(=O)N1CCN(c3ncccn3)CC1)[C@H]1C(=O)O[C@H](c3ccccc3)[C@H](c3ccccc3)N1[C@@H]2c1ccccc1OCCO
## Output 0.611

## Input For the compound COC(=O)[C@@]1(Cc2ccc(F)cc2)[C@H]2c3cc(C(=O)N4CCCC4)n(CCc4ccccn4)c3C[C@H]2CN1C(=O)c1ccccc1 , give its measured z-score value.
## Output -0.588

## Input Please look at this compound and report its z-score: C=CCNC(=O)[C@H]1[C@@H]2C(=O)O[C@@H](c3ccccc3)[C@@H](c3ccccc3)N2[C@@H](c2ccc(OCCO)cc2)[C@]12C(=O)Nc1ccccc12
## Output -0.564

## Input Return z-score (reported value) for this compound: COc1ccc(C#Cc2ccc3c(c2)[C@]2(C(=O)N3)[C@H](C(=O)O)[C@H]3C(=O)O[C@H](c4ccccc4)[C@H](c4ccccc4)N3[C@@H]2c2ccccc2OCCO)cc1
## Output -0.183

## Input Using known records, supply z-score for CC(C)C[C@@H]1NC(=O)[C@@]23C(=O)N[C@@H](Cc4ccccc4)C2[C@H](C)[C@@]2(C)O[C@H]2C3/C=C/C/C=C\CNC(=O)CNC1=O (stereo partly drawn)
## Output -0.911

## Input Look up and report measured z-score for this entry: CC(C)NC(=O)[C@@H]1c2ccccc2C(=O)N(Cc2ccc(OC(F)(F)F)cc2)[C@H]1c1ccc(CO)cc1
## Output -0.664

## Input For the compound CC(C)C[C@H]1NC(=O)C([C@@H](C)OCc2ccccc2)NC(=O)[C@@]23C(=O)N[C@@H](Cc4ccccc4)C2[C@H](C)[C@@]2(C)O[C@H]2C3/C=C/C/C=C\CNC1=O (stereo partly drawn) , give its measured z-score value.
## Output -0.0809

## Input Answer with the recorded z-score for the compound listed here: C=CC[C@]1(C(=O)NCC(O)CO)COC(c2ccc(OCCCO)cc2)=N1 (stereo partly drawn)
## Output -0.471

## Input // Input: COC(=O)c1cccc([C@H]2OC(=CC(=O)OC(C)C)C[C@@H](c3cccc(C(=O)OC)c3)O2)c1 . Output its z-score only.
## Output -0.0196

## Input Indicate the recorded z-score value for this compound: COC(=O)C(CC#Cc1ccc2c(c1)[C@]1(C(=O)N2)[C@H](c2ccc(OCCO)cc2)N2[C@H](c3ccccc3)[C@H](c3ccccc3)OC(=O)[C@H]2[C@@H]1C(=O)N1CCCCCCC1)C(=O)OC
## Output 0.136

## Input Give z-score for the following compound: O=C1C2C=CC(C(O)c3cccs3)N(Nc3ccc([N+](=O)[O-])cc3)C2C(=O)N1c1ccccc1 (stereo not drawn)
## Output -0.0047

## Input Given N#Cc1ccc(-c2cccc(=O)o2)cc1 , respond with its z-score.
## Output -0.0301

## Input Please look at this compound and report its z-score: COc1ccc([Si](C)(C)[C@@H]2[C@@H](CC(=O)N(CCO)Cc3ccccc3)O[C@]3(C(=O)N(Cc4ccc(N5C(=O)c6cccc7cccc5c67)cc4)c4ccccc43)[C@H]2C)cc1
## Output -0.22

## Input Determine its reported z-score: COCCCNC(=O)[C@@]1(CCS(=O)(=O)c2ccccc2)COC(c2ccc(OCCCO)cc2)=N1
## Output 0.103

## Input Answer with the recorded z-score for the compound listed here: O=C(O)[C@H](Cc1ccccc1)n1cc(C2(O)CCCCC2)nn1
## Output -0.477

## Input For the compound C=CC[C@@]1(C(=O)OC)N=C(c2ccc(OCCCO)cc2)O[C@@H]1c1ccccc1N=[N+]=[N-] , give its measured z-score value.
## Output -1.05

## Input Please report z-score for the following compound: C=C(C)[C@@H]1CC=C(C(O)C2C=CC3C(=O)N(C)C(=O)C3N2Nc2ccc([N+](=O)[O-])cc2[N+](=O)[O-])CC1 (stereo partly drawn)
## Output -0.339

## Input Give reported z-score value for C=CCOC(=O)[C@@H]1[C@H]2C(=O)O[C@H](c3ccccc3)[C@H](c3ccccc3)N2[C@H](c2ccc(OCCOC(=O)[C@H]3C[C@H]4C(=O)NCC(=O)N4[C@H]3c3cccc(OCCO)c3)cc2)[C@@]12C(=O)Nc1ccc(I)cc12
## Output 0.312

Data provenance: PubChem BioAssay
